These measurements were taken from ChEMBL document CHEMBL1145629.

Target: Adenosine receptor A3 (Mus musculus)
Sequence (Q61618 whole entry): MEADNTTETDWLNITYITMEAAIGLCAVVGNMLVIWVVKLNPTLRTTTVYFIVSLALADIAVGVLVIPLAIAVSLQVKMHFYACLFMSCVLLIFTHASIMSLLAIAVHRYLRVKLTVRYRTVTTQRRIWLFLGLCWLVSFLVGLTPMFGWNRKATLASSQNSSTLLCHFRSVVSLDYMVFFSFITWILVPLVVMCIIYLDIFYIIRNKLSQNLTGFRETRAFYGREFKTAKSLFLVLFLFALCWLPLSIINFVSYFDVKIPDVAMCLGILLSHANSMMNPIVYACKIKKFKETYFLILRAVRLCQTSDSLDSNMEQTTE
Assay: Displacement of [125I]N6-(-amino-3-iodobenzyl)adenosine-5'-N-methyl-uronamide from mouse recombinant adenosine A3 receptor expressed in HEK293 cells
Kindly note that classification relies on Ki with these boundaries: bottom end (below 1 nM), midrange (1 nM to below 5 nM), top end (5 nM or more)

> print(dat)
                                    molecule                    targetortestsystem  assignedclass
 1  CNC(=O)[C@@]12C[C@@H]1[C@@H](n1cnc3c(NCc4cccc(Cl)c4)nc(C#CCCCC(=O)OC)nc31)[C@H](O)[C@@H]2O  Adenosine receptor A3 (Mus musculus)       midrange
 2  CNC(=O)[C@@]12C[C@@H]1[C@@H](n1cnc3c(NCc4cccc(Cl)c4)nc(Cl)nc31)[C@H](O)[C@@H]2O  Adenosine receptor A3 (Mus musculus)       midrange
 3  CNC(=O)[C@@]12C[C@@H]1[C@@H](n1cnc3c(NCc4cccc(Cl)c4)nc(C#C[Si](C)(C)C)nc31)[C@H](O)[C@@H]2O  Adenosine receptor A3 (Mus musculus)       midrange
 4  CNC(=O)[C@@]12C[C@@H]1[C@@H](n1cnc3c(NCc4cccc(I)c4)nc(Cl)nc31)[C@H](O)[C@@H]2O  Adenosine receptor A3 (Mus musculus)     bottom end
 5  CNC(=O)C12C[C@@H]1[C@@H](n1cnc3c(NCc4cc(OC)ccc4OC)nc(Cl)nc31)[C@H](O)[C@@H]2O (single isomer, unassigned)  Adenosine receptor A3 (Mus musculus)       midrange
 6  CNC(=O)C12C[C@@H]1[C@@H](n1cnc3c(NCC(c4ccccc4)c4ccccc4)nc(Cl)nc31)[C@H](O)[C@@H]2O (single isomer, unassigned)  Adenosine receptor A3 (Mus musculus)       midrange
 7  CNC(=O)[C@H]1O[C@@H](n2cnc3c(NCc4cccc(I)c4)ncnc32)[C@H](O)[C@@H]1O  Adenosine receptor A3 (Mus musculus)     bottom end
 8  CNC(=O)C12C[C@@H]1[C@@H](n1cnc3c(NCc4cccc(Cl)c4)nc(SC)nc31)[C@H](O)[C@@H]2O (single isomer, unassigned)  Adenosine receptor A3 (Mus musculus)       midrange
 9  CNC(=O)[C@@]12C[C@@H]1[C@@H](n1cnc3c(NC)nc(Cl)nc31)[C@H](O)[C@@H]2O  Adenosine receptor A3 (Mus musculus)        top end
10  CNC(=O)[C@@]12C[C@@H]1[C@@H](n1cnc3c(NCc4cccc(C#CCCCC(=O)NCCN)c4)nc(Cl)nc31)[C@H](O)[C@@H]2O  Adenosine receptor A3 (Mus musculus)        top end
11  CNC(=O)[C@@]12C[C@@H]1[C@@H](n1cnc3c(NCc4cccc(Cl)c4)nc(C#CCCCC(=O)NCCN)nc31)[C@H](O)[C@@H]2O  Adenosine receptor A3 (Mus musculus)        top end
12  CNC(=O)C12C[C@@H]1[C@@H](n1cnc3c(NCc4cccc(Br)c4)nc(Cl)nc31)[C@H](O)[C@@H]2O (single isomer, unassigned)  Adenosine receptor A3 (Mus musculus)     bottom end
13  CNC(=O)[C@@]12C[C@@H]1[C@@H](n1cnc3c(NOC)nc(Cl)nc31)[C@H](O)[C@@H]2O  Adenosine receptor A3 (Mus musculus)        top end
